Listed below: hERG current change (%, negative = inhibition) at 10uM values for each entry.
# tgt: human ether-à-go-go-related gene (hERG) potassium channel (human, UniProt Q12809)
# Sequence (Q12809 whole entry, looked up): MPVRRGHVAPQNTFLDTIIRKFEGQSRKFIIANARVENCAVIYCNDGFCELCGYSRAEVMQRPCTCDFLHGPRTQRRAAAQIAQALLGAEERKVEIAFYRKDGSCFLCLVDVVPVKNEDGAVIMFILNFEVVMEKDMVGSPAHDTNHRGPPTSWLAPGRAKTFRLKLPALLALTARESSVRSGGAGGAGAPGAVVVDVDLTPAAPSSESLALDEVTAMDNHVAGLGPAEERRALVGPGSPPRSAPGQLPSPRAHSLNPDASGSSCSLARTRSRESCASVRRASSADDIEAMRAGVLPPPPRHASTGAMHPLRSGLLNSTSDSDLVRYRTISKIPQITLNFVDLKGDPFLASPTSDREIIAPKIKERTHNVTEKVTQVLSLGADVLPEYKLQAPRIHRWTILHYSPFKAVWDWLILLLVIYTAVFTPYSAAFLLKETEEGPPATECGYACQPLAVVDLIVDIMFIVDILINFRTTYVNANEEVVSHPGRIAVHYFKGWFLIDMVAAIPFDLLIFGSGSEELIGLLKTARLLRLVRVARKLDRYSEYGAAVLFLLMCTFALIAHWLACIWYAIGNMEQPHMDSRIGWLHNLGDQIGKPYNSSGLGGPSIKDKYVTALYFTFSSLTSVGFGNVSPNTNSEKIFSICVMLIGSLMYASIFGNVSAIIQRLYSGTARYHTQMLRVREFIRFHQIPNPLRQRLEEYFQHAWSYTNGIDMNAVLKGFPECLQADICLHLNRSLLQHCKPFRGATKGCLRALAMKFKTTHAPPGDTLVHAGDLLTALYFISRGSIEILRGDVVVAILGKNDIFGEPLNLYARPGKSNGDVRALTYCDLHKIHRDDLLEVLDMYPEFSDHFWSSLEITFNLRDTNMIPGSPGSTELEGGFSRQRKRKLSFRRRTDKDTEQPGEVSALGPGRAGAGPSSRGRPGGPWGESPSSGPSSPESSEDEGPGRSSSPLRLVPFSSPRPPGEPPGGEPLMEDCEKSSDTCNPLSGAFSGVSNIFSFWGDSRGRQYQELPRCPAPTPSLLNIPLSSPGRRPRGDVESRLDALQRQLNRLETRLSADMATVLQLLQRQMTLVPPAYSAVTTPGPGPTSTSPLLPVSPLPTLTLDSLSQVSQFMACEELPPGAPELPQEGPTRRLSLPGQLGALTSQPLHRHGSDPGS
# measurementNotes: primary screen, population patch clamp on CHO cells stably expressing hERG; higher = less effect of the substance;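 further: peak tail current of the secondary pulse compared with the same well before compound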
Screen size: about 310,000 compounds; about 14,000 (4.5%) showed an effect of 50% or more. The effect is printed as a negative number. For the sample, strong results were picked, then their nearest neighbours and some compounds at random.
The reply should contain only the number, in %.

Identify the measured hERG current change (%, negative = inhibition) at 10uM of Cc1nnc(SCC(=O)Nc2ncc(Cl)cc2Cl)n1Cc1ccccc1 for human ether-à-go-go-related gene (hERG) potassium channel (human, UniProt Q12809).
-15.6

New cases:
Identify the measured hERG current change (%, negative = inhibition) at 10uM of O=C(CSc1cn[nH]n1)Nc1ccccc1C(F)(F)F for human ether-à-go-go-related gene (hERG) potassium channel (human, UniProt Q12809).
8.13

Identify the measured hERG current change (%, negative = inhibition) at 10uM of CC(Sc1nnc(CN2CCCC2)n1Cc1ccccc1)C(=O)Nc1ccc(F)cc1 (stereo not shown) for human ether-à-go-go-related gene (hERG) potassium channel (human, UniProt Q12809).
-61.4

Identify the measured hERG current change (%, negative = inhibition) at 10uM of Cc1nnc(SC(C)C(=O)Nc2ncc(Cl)cc2Cl)n1Cc1ccccc1 (stereo not shown) for human ether-à-go-go-related gene (hERG) potassium channel (human, UniProt Q12809).
-67.8

Identify the measured hERG current change (%, negative = inhibition) at 10uM of Nc1c(C=C2C=CC(=O)C=C2)c(=O)nc2sc(CC(=O)N3CCCC3)nn12 for human ether-à-go-go-related gene (hERG) potassium channel (human, UniProt Q12809).
8.79

Identify the measured hERG current change (%, negative = inhibition) at 10uM of Cc1ccc(-n2nnnc2SC(C)C(=O)Nc2ccc(Cl)cn2)cc1 (stereo not shown) for human ether-à-go-go-related gene (hERG) potassium channel (human, UniProt Q12809).
-22.1

Identify the measured hERG current change (%, negative = inhibition) at 10uM of Cc1nnc(SC(C)C(=O)Nc2ccc(Cl)cn2)n1Cc1ccccc1 (stereo not shown) for human ether-à-go-go-related gene (hERG) potassium channel (human, UniProt Q12809).
-17.3

Data credit: paper PMC4336329
